Assay: Primary qHTS for delayed death inhibitors of the malarial parasite plastid, 96 hour incubation
Details: P. falciparum luciferase reporter growth; series mostly up to 28.7 µM
Among all 320,000 compounds or so, about 22,000 (6.9%) were called active. Roughly 27% stayed inconclusive and do not appear here. Calls follow the shape of the dose curve; as a rule, active = well fitted inhibition curve with a large enough effect; inconclusive = small, poorly fitted or top-dose-only effect, or another doubt; inactive = no such curve, though single readings can be large or run the other way. For the sample, actives were picked, then their nearest neighbours and some compounds at random.
// classify into True for active, False for inactive

Here's what some known entries look like.
COc1ccc(-c2nc(CS(=O)(=O)CC(=O)NCc3cccc(Br)c3)c(C)o2)cc1: False
Cc1cccc(-c2ncc(CN3CCC(CO)(CCCc4ccccc4)CC3)cn2)c1: True
COc1cc(F)c(C2=CC(=O)CC(C)(C)C2)cc1F: False
O=C(Nc1ccc(Br)cc1)C1CCC(=O)N1Cc1ccccc1Cl (configuration not stated): True
COc1ccc(CC2(CO)CCN(Cc3cnn(C)c3)CC2)cc1: False
Cc1ccc(-c2nc(CS(=O)(=O)CC(=O)NCc3ccc4c(c3)OCO4)c(C)o2)cc1: True
CC(C)c1csc(CN2CCC(CO)(Cc3ccccc3)CC2)n1: False
CCOc1ccc(N2CC(C(=O)NCc3ccccn3)CC2=O)cc1 (configuration not stated): False
CCN1C(=O)[C@H]2[C@@H](c3ccc(SC4CCCCC4)c(OC)c3)N[C@@](Cc3ccccc3)(C(=O)OC)[C@H]2C1=O: False
Cc1ccc(NC(=O)COC(=O)CNC(=O)c2ccc(Cl)cc2Cl)cc1S(=O)(=O)N1CCOCC1: False

With those in mind, consider the next compound.
Hey, what did the test say about CC(C)S(=O)(=O)c1csc(NC(=O)Nc2ccc(Cl)cc2)c1Cl ? True
